FYI, the data here is from paper PMC11784839.

Property: Z Repl 2; scope: individual compounds
biological target: UniProt:P10636; test: MCE Phenols Library screening, tau biosensor cell seeding assay (AvZ); format: cell-based; conditions: Z score, replicate 2
Sequence (P10636 623-695 limits assumed): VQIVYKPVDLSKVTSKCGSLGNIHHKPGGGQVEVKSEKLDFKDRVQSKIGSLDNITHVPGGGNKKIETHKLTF
property_measured: Z Repl 2

compound	system_tested	property_measured	value
COc1ccc(-c2cc(=O)c3c(O)c(OC)c(O)c(OC)c3o2)cc1 [Nevadensin]	UniProt:P10636	Z Repl 2	-0.108
COc1ccc(C=O)cc1 [4-Methoxybenzaldehyde]	UniProt:P10636	Z Repl 2	0.786
COc1ccc(/C=C/c2cc(O)cc(O[C@@H]3O[C@H](CO)[C@@H](O)[C@H](O)[C@H]3O)c2)cc1 [Desoxyrhaponticin]	UniProt:P10636	Z Repl 2	-0.238
COc1cc(-c2coc3c([C@@H]4O[C@H](CO)[C@@H](O)[C@H](O)[C@H]4O)c(O)ccc3c2=O)ccc1O [3'-Methoxypuerarin]	UniProt:P10636	Z Repl 2	-0.096
